Source of measurements: PubChem BioAssay

Catalogue of composite z-score readings, one per entry.
- System: PRMT1 (protein arginine N-methyltransferase 1)
- test-details: PRMT1 binders on small-molecule microarrays, primary screen, biochemical, small-molecule microarray, 635 nm fluorescence (AID 1088);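 also: binding of Prmt1 protein to compounds spotted on small-molecule microarray slides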
- assay-context: small-molecule microarray binding, higher = more signal
observation-type: composite z-score

>>> value("CO[C@H]1O[C@H](CO)[C@@H](OC(=O)Nc2ccc(C#N)cc2)[C@@H]2OC(=O)[C@H](Cc3cccc(Br)c3)C/C=C/C[C@@H](Cc3cccc(Br)c3)C(=O)O[C@@H]12")
1.24
>>> value("C=CCC(OC(C)=O)[C@@H]1[C@@H](N(Cc2cccc3ccccc23)C(=O)Cc2ccc(F)cc2)c2cc(OCCCO)ccc2N1C(=O)c1ccc(-c2ccccc2)cc1 (stereo partly drawn)")
-0.325
>>> value("COCCOC(=O)N1C(=O)[C@@]2(c3cc(C#CCNC(N)=O)ccc31)[C@H](c1ccc(OCCO)cc1)N1[C@H](c3ccccc3)[C@H](c3ccccc3)OC(=O)[C@H]1[C@@H]2C(N)=O")
0.981

----------
- test-details: small-molecule microarray binders of probe aXIP, primary screen, biochemical, NeuroSMM set, 635/667 nm fluorescence (AID 1119);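 also: probe is the protein aXip251-270 applied at 1 µg/mL to compound-printed slides; binding of probe to printed compounds measured as 667 nm fluorescence plus signal to noise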
- assay-context: higher = more signal, called active from +8 up or from −8 down
Calls of active or inactive are those of the source.
composite Z-score by entry:
observation-type: composite Z-score

>>> value("COc1ccc(CCNC(=O)[C@@]2(Cc3ccccc3I)c3ccccc3C(=O)N(Cc3ccccc3Cl)[C@H]2c2ccc(CO)cc2)cc1")
"1.24 (inactive)"
>>> value("CC(C)[C@H]1NC(=O)[C@@]23C(=O)N[C@@H](Cc4ccccc4)C2[C@H](C)[C@@]2(C)O[C@H]2C3/C=C/CCC/C=C/CNC(=O)[C@H](Cc2ccccc2)NC1=O (stereo partly drawn)")
"-0.0159 (inactive)"
>>> value("COCCOC(=O)N1C(=O)[C@@]2(c3cc(C#CCC(C(=O)OC)C(=O)OC)ccc31)[C@H](C(=O)NC[C@H](O)c1ccccc1)[C@H]1C(=O)O[C@H](c3ccccc3)[C@H](c3ccccc3)N1[C@@H]2c1ccc(OCCO)cc1")
"1.02 (inactive)"

----------
- test-details: PSAC antagonists in infected red cells, primary screen, cell-based, P. falciparum Indochina, OD700, 18 h (AID 1157)
- assay-context: P. falciparum Indochina infected erythrocytes, osmotic lysis OD700, 18 h; higher = more signal, called active from +8 up or from −8 down
Think of 0.6 as a floor: if z-score stands on it or above, it is y; beneath it, n.

>>> class_name("C[C@@]12COC[C@]13C=C(Br)[C@H](C2)[C@@]1(CO1)C3=O")
"n"
>>> class_name("COCCOC(=O)N1C(=O)[C@@]2(c3cc(C#CCCO)ccc31)[C@H](C(=O)N1CCCCCCC1)[C@H]1C(=O)O[C@H](c3ccccc3)[C@H](c3ccccc3)N1[C@@H]2c1ccccc1OCCO")
"n"
>>> class_name("COCCOC(=O)N1C(=O)[C@@]2(c3ccccc31)[C@H](c1ccc(OCCO)cc1)N1[C@H](c3ccccc3)[C@H](c3ccccc3)OC(=O)[C@H]1[C@@H]2C(=O)N1CCCCCCC1")
"y"
>>> class_name("COCCCNC(=O)[C@@]1(c2ccc([N+](=O)[O-])cc2)CC(=O)N(CC23CC4CC(CC(C4)C2)C3)[C@@H]1c1ccc(CO)cc1I")
"y"
>>> class_name("C#C[C@@H](CC)O[Si](C#CCCCC#N)(C(C)C)C(C)C")
"y"
>>> class_name("COCCOC(=O)N1C(=O)[C@@]2(c3cc(C#CCC(C(=O)OC)C(=O)OC)ccc31)[C@H](C(=O)NC[C@H](O)c1ccccc1)[C@H]1C(=O)O[C@H](c3ccccc3)[C@H](c3ccccc3)N1[C@@H]2c1ccc(O)cc1")
"n"
>>> class_name("C=C(/C(=C/C[C@H](OC(=O)c1ccncc1)c1cccc(OCCO)c1)c1cnc2ccccc2c1)C(C)C")
"y"

----------
- System: PRMT1 (protein arginine N-methyltransferase 1)
- test-details: PRMT1 binders on small-molecule microarrays, primary screen, biochemical, small-molecule microarray, 635 nm fluorescence (AID 1088);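 also: binding of Prmt1 protein to compounds spotted on small-molecule microarray slides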
- assay-context: small-molecule microarray binding, higher = more signal
Label rule, in plain words: composite z-score of 1 and up is class 1, under 1 is class 0.

>>> class_name("C[C@]1(C(=O)NCCN2CCOCC2)c2ccccc2C(=O)N(Cc2cc(F)cc(C(F)(F)F)c2)[C@H]1c1ccc(CO)cc1")
"class 1"
>>> class_name("COC(=O)C1=CC(CCCO)=CC(c2ccc(CN3CCCC3)cc2)N(Cc2cc3c(cc2Br)OCO3)C=C1C(=O)OC (stereo not drawn)")
"class 1"
>>> class_name("C[C@]1(C(=O)NCC(F)(F)F)c2ccccc2C(=O)N(Cc2ccccc2)[C@H]1c1ccc(CO)cc1")
"class 0"
>>> class_name("CCOC(=O)C1=CC[C@@H](c2ccccc2)N(S(=O)(=O)c2ccc(C)cc2)[C@H]1c1cccc(OC)c1")
"class 1"
>>> class_name("C[C@]1(C(=O)O)c2ccccc2C(=O)N(Cc2ccc(OC(F)(F)F)cc2)[C@H]1c1ccc(CO)cc1")
"class 0"
>>> class_name("COc1cc(NN2C(C(O)c3ccccc3)C=CC3C(=O)N(C)C(=O)C32)cc(OC)c1OC (stereo not drawn)")
"class 1"
>>> class_name("CN(C)CCCC[C@@H]1NC(=O)[C@@H]2C[C@H](C(=O)O)[C@H](c3cccc(OCCO)c3)N2C1=O")
"class 0"
>>> class_name("COC(=O)[C@@]1(Cc2ccccc2CN=[N+]=[N-])N=C(c2ccc(OCCCO)cc2)O[C@H]1c1ccccc1")
"class 1"

----------
- measured-target: NADPH oxidase 5 (Homo sapiens) (UniProt Q96PH1)
- Sequence (Q96PH1 whole entry, looked up): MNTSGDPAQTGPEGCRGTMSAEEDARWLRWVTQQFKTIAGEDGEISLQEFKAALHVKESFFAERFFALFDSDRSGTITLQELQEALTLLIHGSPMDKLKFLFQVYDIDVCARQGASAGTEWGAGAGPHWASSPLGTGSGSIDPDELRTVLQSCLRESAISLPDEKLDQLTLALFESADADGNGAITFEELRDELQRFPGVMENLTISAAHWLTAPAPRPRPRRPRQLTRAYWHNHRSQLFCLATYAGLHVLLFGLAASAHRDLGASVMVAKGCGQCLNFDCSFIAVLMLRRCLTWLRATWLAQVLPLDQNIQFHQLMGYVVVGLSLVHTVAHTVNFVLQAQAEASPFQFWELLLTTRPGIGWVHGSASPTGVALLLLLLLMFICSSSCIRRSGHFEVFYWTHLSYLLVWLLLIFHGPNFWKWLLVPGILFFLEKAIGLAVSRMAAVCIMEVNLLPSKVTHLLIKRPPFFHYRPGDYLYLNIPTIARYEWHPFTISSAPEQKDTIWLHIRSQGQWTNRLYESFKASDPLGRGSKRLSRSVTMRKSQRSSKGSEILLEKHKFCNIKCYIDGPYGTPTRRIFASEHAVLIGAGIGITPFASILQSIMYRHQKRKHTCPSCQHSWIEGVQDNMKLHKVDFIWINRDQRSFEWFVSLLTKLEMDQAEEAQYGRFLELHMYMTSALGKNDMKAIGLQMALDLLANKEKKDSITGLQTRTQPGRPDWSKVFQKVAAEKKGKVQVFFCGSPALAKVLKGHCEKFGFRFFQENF
- test-details: NOX5-dependent H2O2 signal modulators, primary screen, NOX inhibitor project, cell-based, HEK293-NOX5, Amplex Red fluorescence (AID 1161)
- assay-context: HEK293-NOX5, ionomycin, 45 min, higher = more signal
observation-type: z-score

>>> value("Cc1ccc(F)cc1S(=O)(=O)N[C@@H]1CCN(Cc2cccc3[nH]ccc23)C1")
-0.541
>>> value("O=C1C[C@@](C(=O)NCC(F)(F)F)(c2ccc([N+](=O)[O-])cc2)[C@@H](c2ccc(CO)cc2)N1CC12CC3CC(CC(C3)C1)C2")
-5.17
>>> value("C=C(/C(=C/C[C@H](OC(=O)c1ccncc1)c1ccccc1OCCO)c1cnc2ccccc2c1)C(C)C")
-0.914
>>> value("COc1ccc(C(O)C2C=CC3C(=O)N(c4ccccc4)C(=O)C3N2Nc2ccccc2F)cc1 (centres undefined)")
-1.7

----------
- System: Noggin (protein binding on small-molecule microarray)
- test-details: Noggin binders on small-molecule microarray, primary screen, biochemical, 635/667 nm fluorescence (AID 1095);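 also: score merges 667 nm feature fluorescence with signal to noise over triplicate slides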
- assay-context: 635 nm fluorescence, higher = more signal
Answer Not met if composite z-score is under 0.3, and Met if it is 0.3 or more.

>>> class_name("CCOC(=O)C[C@H]1[C@H](OC(=O)c2ccc(-c3ccccc3)cc2)[C@@H](NC(=O)CC(C)C)c2cc(OCCCO)ccc2N1C(=O)c1ccccc1")
"Met"
>>> class_name("COCCOC(=O)N1C(=O)[C@@]2(c3cc(C#CC4(O)CCCCCC4)ccc31)[C@H](c1ccc(OCCO)cc1)N1[C@H](c3ccccc3)[C@H](c3ccccc3)OC(=O)[C@H]1[C@@H]2C(=O)Nc1nc2ccccc2s1")
"Met"
>>> class_name("COc1ccc(C(O)C2C=CC3C(=O)N(c4ccccc4)C(=O)C3N2Nc2ccc(C(C)C)cc2)c2ccccc12 (stereo unspecified)")
"Not met"
>>> class_name("CC(C)CNC(=O)[C@@]1(c2ccc([N+](=O)[O-])cc2)CC(=O)N(C2CCCCC2)[C@@H]1c1ccc(CO)cc1")
"Not met"
>>> class_name("COC(=O)C1=CC(CCCO)=CC(c2ccc(CN3CCCC3)cc2)N(Cc2cc3c(cc2Br)OCO3)C=C1C(=O)OC (stereo unspecified)")
"Met"
>>> class_name("Cc1ccccc1C(O)C1C=CC2C(=O)N(c3ccccc3)C(=O)C2N1Nc1ccc([N+](=O)[O-])cc1 (stereo unspecified)")
"Met"

----------
- test-details: P. aeruginosa biofilm formation inhibitors, primary screen, PAO1 strain, BacTiter-Glo luminescence, LB-PBS (AID 1144)
- assay-context: 12 h, higher = more signal
Assign fulfilled whenever z-score does not fall below -0.6; assign not fulfilled whenever it does.

>>> class_name("COCCOC(=O)N1C(=O)[C@@]2(c3cc(C#CCC(C(=O)OC)C(=O)OC)ccc31)[C@H](C(=O)NC[C@H](O)c1ccccc1)[C@H]1C(=O)O[C@H](c3ccccc3)[C@H](c3ccccc3)N1[C@@H]2c1ccc(O)cc1")
"not fulfilled"
>>> class_name("COc1ccc([Si](C)(C)[C@@H]2[C@@H](CCn3cc([C@H](O)c4ccccc4)nn3)O[C@]3(C(=O)N(c4ccccc4)c4ccccc43)[C@H]2C)cc1")
"fulfilled"
>>> class_name("COCCOC(=O)N1C(=O)[C@@]2(c3cc(C#CCNC(N)=O)ccc31)[C@H](c1ccc(OCCO)cc1)N1[C@H](c3ccccc3)[C@H](c3ccccc3)OC(=O)[C@H]1[C@@H]2C(=O)NC[C@H](O)c1ccccc1")
"fulfilled"
>>> class_name("C[C@]1(C(=O)NCC(F)(F)F)c2ccccc2C(=O)N(Cc2ccccc2)[C@H]1c1ccc(CO)cc1")
"fulfilled"
>>> class_name("COc1ccc(C(=O)Nc2cccc(CN3C(=O)[C@]4(O[C@H](CCn5cc([C@H](O)c6ccccc6)nn5)[C@@H]([Si](C)(C)c5ccc(OC)cc5)[C@@H]4C)c4ccccc43)c2)cc1")
"fulfilled"
